- assayed-system: LRAT (Bos taurus)
- Construct: followed by approximately 15 pg of RPE microsomal protein; tissue W. L. Lawson Co., Lincoln, Nebr; host or cells: bovine retinal pigment epithelium microsomes
- Sequence (Q9BGL2 1-230): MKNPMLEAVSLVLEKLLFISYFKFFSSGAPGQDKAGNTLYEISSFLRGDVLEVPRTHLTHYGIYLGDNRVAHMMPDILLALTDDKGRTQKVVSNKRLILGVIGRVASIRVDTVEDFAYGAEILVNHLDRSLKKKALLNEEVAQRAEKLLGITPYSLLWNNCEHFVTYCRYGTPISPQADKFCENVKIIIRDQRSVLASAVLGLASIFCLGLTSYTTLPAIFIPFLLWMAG
- test-name: Assay for LRAT activity in RPE microsomes
- Assay type: biochemical, bovine
- particulars: 100 μm compound
value-kind: inhibition at 100 µM (%)

# input Consider the compound `CCCCC/C=C\C/C=C\CCCCCCCC(=O)NCCCN(C)C` and give its recorded inhibition at 100 µM.
# output 75

P: CC(C)=CCC/C(C)=C/CC/C(C)=C/CC/C(C)=C/CO
Q: CC(C)=CCCC(C)=CCCC(C)=CCO
# input Between these two entries, P and Q , state which has the higher inhibition at 100 µM. Reply with the label of the item you choose.
# output P
(P: 77%, Q: 53%)

I: CCCCCCCCCCCCCC(=O)N(C)CC(=O)O
II: CCCCC/C=C/C/C=C/CCCCCCCC(=O)NC(C)c1ccccc1 (centres unmarked) [Melinamide, reference compound]
# input Pick one, I or II : lowest reported inhibition at 100 µM. Reply with the label of the item you choose.
# output I
